- measured-target: HLA-DPA1*01:03/ HLA-DPB1*04:01 (Homo sapiens, UniProt P04440+P20036)
- assay-comment: In vitro competitive peptide binding to purified MHC class II
pIC50: −log10 of the molar value. Where no end group is shown, it is not given here.
reported-metric: pIC50

Below, each entry is followed by its recorded pIC50 result.
{"columns": ["ordered-residues", "pIC50"],
 "data": [
  ["RKIVGAMVQIITYRD [MPO447–461]", 7.01],
  ["PILRGLMATPAKLNR [MPO545–559]", 4.92],
  ["PVAATRTAVRAADYL [MPO105–119]", 5.15]
]}

a: IKAVRIYIGDVMRQT [MPO447–461scramble, reference compound]
b: MPELTSMHTLLLREH [MPO409–423]
c: DQERSLMFMQWGQLL [MPO245–259]
d: GEKLYQEARKIVGAM [MPO413–427, reference compound]
## Input Descending sort on pIC50 required. Output spec: labels arranged per the requested ranking.
## Output a, b, c, d

Source of measurements: paper PMC6930338
